MEASURED TARGET: T1, P4A-bN
T1 chain: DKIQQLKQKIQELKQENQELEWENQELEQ
TEST: two-hybrid library CCNG1;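 note: natural log of median RNA to DNA barcode read ratio; higher means stronger binding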
ASSAY METRIC: interaction score

// below: answered binders
[[record]]
binder = "DENQQLEQEIQELEQEIQELEWKNQELKQ [P11A-bN]"
assay_metric = "interaction score"
result = 1.12

[[record]]
binder = "DKNQQLKQKIQELKQKIQELKWENQELEQ [P12A-bN]"
assay_metric = "interaction score"
result = -0.221

[[record]]
binder = "DEIQQLEQEIQELEQKNQELKWKNQELKQ [P3A-bN]"
assay_metric = "interaction score"
result = 1.79

[[record]]
binder = "DEIQQLEQENQELEQENQELEWEIQELEQ [P1A-bN]"
assay_metric = "interaction score"
result = -0.418


I: DEIQELKKKIEELKRENWELEKKNQELER [4H855-bH]
II: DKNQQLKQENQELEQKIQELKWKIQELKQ [P10A-bN]
Lower value of interaction score belongs to which: I or II ? Return value: the label identifying the chosen record.
I
(I: -0.185, II: 0)

I: DKIQQLKQKIQELKQENQELEWENQELEQ [P4A-bN]
II: DKIQQLKQKNQELKQKNQELKWKIQELKQ [P2A-bN]
Exercise: compare I and II ; which one has the greater interaction score? Answer format: the label of the selected item.
II
